- System: PC3 (p53−) (Prostate Adenocarcinoma)
- assayProcedure: Cell viability analysis, prostate cancer PC3
- Type: cell-based, human
- conditionParameters: Homo sapiens, 72 h, drug 10 μM, 72 hours, WST-1, OD450 nm; read-out: cell viability (survival rate), PC3
Where a name gives a salt, the structure may show the parent alone.
Mark y only for viability at 10 µM values smaller than 50%; exact matches and larger values are n.

# compound, labelValue
measured = [
    ("NC(=O)C(c1ccccc1)(c1ccccc1)[C@@H]1CCN(CCc2ccc3c(c2)CCO3)C1 [Darifenacin HBr]", "n"),
    ("NC(=O)c1cnccn1 [Pyrazinamide]", "n"),
    ("NNC(=O)c1ccncc1 [Isoniazid (Tubizid), Isoniazid]", "y"),
    ("Cc1ccc2c(Cl)cc(Cl)c(O)c2n1 [Chlorquinaldol]", "n"),
    ("CCc1cc2c(cc1CC)CC(NC[C@H](O)c1ccc(O)c3[nH]c(=O)ccc13)C2 [Indacaterol Maleate]", "n"),
    ("CN(CCOc1ccc(CC2SC(=O)NC2=O)cc1)c1ccccn1 (centres unmarked) [Rosiglitazone maleate]", "n"),
    ("CN(C)CCC=C1c2ccccc2CCc2ccccc21 [Amitriptyline HCl]", "n"),
    ("NC(=O)N/N=C/c1ccc([N+](=O)[O-])o1 [Nitrofurazone (Nitrofural), Nitrofurazone]", "n"),
    ("N#CC(c1ccc(Cl)cc1)c1c(Cl)cc(-n2ncc(=O)[nH]c2=O)cc1Cl (centres unmarked) [Diclazuril]", "n"),
    ("COc1ncnc(NS(=O)(=O)c2ccc(N)cc2)c1OC [Sulfadoxine (Sulphadoxine), Sulfadoxine]", "n"),
    ("CCc1oc2ccccc2c1C(=O)c1cc(Br)c(O)c(Br)c1 [Benzbromarone]", "n"),
    ("N[C@@H](C(=O)N[C@@H]1C(=O)N2C(C(=O)O)=C(Cl)CS[C@H]12)c1ccccc1 [Cefaclor (Ceclor), Cefaclor]", "n"),
    ("COC(=O)N/N=C/c1c[n+]([O-])c2ccccc2[n+]1[O-] [Carbadox]", "n"),
    ("Cc1cc(-n2c(=O)[nH]c(=O)n(C)c2=O)ccc1Oc1ccc(SC(F)(F)F)cc1 [toltrazuril]", "y"),
    ("O=C(C[S+]([O-])Cc1ccco1)NC/C=C\\COc1cc(CN2CCCCC2)ccn1 (centres unmarked) [Lafutidine]", "y"),
]
